Biological target: T1, LRRC7, Q96NW7
T1 sequence (Q96NW7 1440-1537, limits assumed, looked up): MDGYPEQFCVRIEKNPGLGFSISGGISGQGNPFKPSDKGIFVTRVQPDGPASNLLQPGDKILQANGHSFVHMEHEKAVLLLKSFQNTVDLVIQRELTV
Assay: holdup assay
Parameters: key: below the threshold = too weak to quantify, mostly under pKd 3.1 to 4
Details: plain residues with an end cap or a label only (N-terminal biotin on a linker: ado-ado)
readoutLabel: pKd

DFLSTFHIRI [CIB2, O75838] = below the threshold
PSVGSKKTVL [REELD1, A0A1B0GV85] = below the threshold
NISYRRESAI [KCNJ4, P48050] = below the threshold
